- TGT: T1, human LAP-TGFB1 Fc fusion (human)
- T1 construct: also called human LAP-TGFβ1-Fc; human LAP-TGFβ-Fc isoform 1
- RUN_DESCRIPTION: SPR pH 7.4, antigen-Fc captured, Fab analyte
MEASUREMENT_LABEL: kon (M⁻¹ s⁻¹)
Enter your answer as a number in M⁻¹ s⁻¹; do not include the unit.

65BLH (Fab, V domains shown, also called 17BLM Fab) VH: EVQLVQSGAEVKKPGASVKVSCKASGYTFTSYDMHWVRQAPGQGLEWMGRIDPQSGGIKYAQKFQGRATLTVDTSTSTAYMELSRLRSDDTAVYYCARWDYGGYFDVWGQGTLVTVSS VL: DIQMTQSPSSLSASVGDRVTITCRASQDIYNYLNWYQQKPGKAVKLLIYYTSRLETGVPSRFSGSGSGTDYTLTISSLQPEDFATYFCQQGDELPWTFGQGTKLEIK = 7.33e+06

As a next step, examine the binder that follows.
Entry 61BLH (Fab, V domains shown, also called 13BLM Fab) VH: EVQLVQSGAEVKKPGASVKVSCKASGYTFTSYDMHWVRQAPGQGLEWMGRIDPQTGDIKYAQKFQGRATLTVDTSTSTAYMELSRLRSDDTAVYYCARWDYGGQFDVWGQGTLVTVSS VL: DIQMTQSPSSLSASVGDRVTITCRASQDIYNYLNWYQQKPGKAVKLLIYYTSGLETGVPSRFSGSGSGTDYTLTISSLQPEDFATYFCQQGDTLPWTFGQGTKLEIK : reported kon = ?
3.57e+06
